All values here come from the RNAGym collection of RNA variant scans (doi:10.7554/elife.80360).

B1: Twister Ribozyme (parent)
chain: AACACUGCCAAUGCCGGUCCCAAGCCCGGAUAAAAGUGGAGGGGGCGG

Variants of: B1
Assay comment: self-cleavage, relative activity (ratio to wild type); higher = more cleavage; co-transcriptional
Listed variants paired with reported self-cleavage
Please state the value as a number alone, without comment.

Here's what some known entries look like.
Query: Which self-cleavage is reported for this variant? A23G G43U
Response: 0.0895

Query: Now the same for A34U G45U
Response: 0.59

Query: Now the same for G7U C21G
Response: 0.0215

Query: Now the same for C5U G16C
Response: 0.159

Query: Now the same for G7U G45A
Response: 0.0748

Query: Now the same for G7U G43A
Response: 0.0755

Query: Now the same for A30U U37A
Response: 0.742

Query: Now the same for A2G C25U
Response: 0.128

Further cases:
Query: Which self-cleavage is reported for this variant? C9A U12C
Response: 0.795

Query: Now the same for A10C C27G
Response: 0.0988

Query: Now the same for G38A A40C
Response: 0.129

Query: Now the same for C26A G44A
Response: 0.562

Query: Now the same for A10G A40C
Response: 0.46

Query: Now the same for C3G C20G
Response: 0.0675

Query: Now the same for C8A G39A
Response: 0.154

Query: Now the same for A1U G44A
Response: 0.0502

Query: Now the same for U18C C19G
Response: 0.0747

Query: Now the same for G29A G39A
Response: 0.381

Query: Now the same for C19A A33G
Response: 0.155
